Molecular target: UniProt P08253
Sequence (P08253 whole entry): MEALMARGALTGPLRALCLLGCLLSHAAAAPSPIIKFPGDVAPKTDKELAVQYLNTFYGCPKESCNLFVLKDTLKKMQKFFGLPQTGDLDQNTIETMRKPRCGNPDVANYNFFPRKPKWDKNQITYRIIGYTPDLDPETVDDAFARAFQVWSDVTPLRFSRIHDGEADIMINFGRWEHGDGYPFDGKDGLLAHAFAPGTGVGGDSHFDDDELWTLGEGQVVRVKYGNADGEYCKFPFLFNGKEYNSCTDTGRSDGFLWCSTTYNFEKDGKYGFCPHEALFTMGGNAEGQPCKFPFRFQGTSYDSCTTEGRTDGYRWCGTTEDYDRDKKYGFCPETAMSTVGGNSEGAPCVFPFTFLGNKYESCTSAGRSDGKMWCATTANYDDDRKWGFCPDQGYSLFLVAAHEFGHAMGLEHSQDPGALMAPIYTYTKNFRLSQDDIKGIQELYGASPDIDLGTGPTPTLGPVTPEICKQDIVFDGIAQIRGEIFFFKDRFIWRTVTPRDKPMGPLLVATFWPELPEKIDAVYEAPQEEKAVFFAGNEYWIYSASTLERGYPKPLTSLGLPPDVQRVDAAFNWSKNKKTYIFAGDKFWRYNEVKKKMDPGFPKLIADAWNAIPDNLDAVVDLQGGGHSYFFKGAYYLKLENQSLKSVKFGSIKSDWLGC
So basically: is Ki under 0.1 µM? Then YES. Not under? Then NO.

Regarding CCOc1ccc(CC[C@H](N[C@H](C)C(=O)O)C(=O)N[C@@H](CCCNC(=N)N)C(=O)Nc2ccccc2)cc1 , kindly confirm whether its Ki is beneath 0.1 µM.
YES

Regarding C[C@@H](N[C@@H](CCc1ccccc1)C(=O)N[C@@H](CCCNC(=N)N)C(=O)Nc1ccccc1)C(=O)O , kindly confirm whether its Ki is beneath 0.1 µM.
NO

Regarding CC(C)C[C@H](NC(=O)[C@H](CCc1ccc(Cl)cc1)N[C@H](C)C(=O)O)C(=O)Nc1ccccc1 , kindly confirm whether its Ki is beneath 0.1 µM.
YES

Regarding Cc1cc(C)cc(CC[C@H](N[C@H](C)C(=O)O)C(=O)N[C@@H](CC(C)C)C(=O)Nc2ccccc2)c1 , kindly confirm whether its Ki is beneath 0.1 µM.
NO

For the next question, use this compound.
Regarding CC(C)C[C@H](NC(=O)[C@H](CCc1ccc(C(C)C)cc1)N[C@H](C)C(=O)O)C(=O)Nc1ccccc1 , kindly confirm whether its Ki is beneath 0.1 µM.
NO

###

In this section we review reported Ki values for a set of compounds.
Protein target, amino acids: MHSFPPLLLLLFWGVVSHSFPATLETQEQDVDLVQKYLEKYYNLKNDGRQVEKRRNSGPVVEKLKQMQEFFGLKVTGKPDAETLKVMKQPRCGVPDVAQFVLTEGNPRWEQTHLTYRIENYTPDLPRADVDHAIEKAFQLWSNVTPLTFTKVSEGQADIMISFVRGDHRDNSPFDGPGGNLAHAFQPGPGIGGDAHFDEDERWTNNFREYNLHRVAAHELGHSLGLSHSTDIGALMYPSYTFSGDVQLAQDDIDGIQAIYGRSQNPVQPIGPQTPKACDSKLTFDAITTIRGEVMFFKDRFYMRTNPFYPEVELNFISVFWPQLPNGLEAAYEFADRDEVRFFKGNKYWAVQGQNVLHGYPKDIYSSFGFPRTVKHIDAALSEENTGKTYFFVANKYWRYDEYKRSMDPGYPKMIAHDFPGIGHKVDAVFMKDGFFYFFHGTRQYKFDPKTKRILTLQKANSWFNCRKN
Report only the number, with the unit nM understood.

Some compounds with known Ki results, for comparison:
Quick one: Ki of Cc1ccc(CC[C@H](N[C@H](C)C(=O)O)C(=O)N[C@@H](CC(C)C)C(=O)Nc2ccccc2)cc1 ?
1900

Quick one: Ki of CC(C)C[C@H](NC(=O)[C@H](CCc1ccccc1O)N[C@H](C)C(=O)O)C(=O)Nc1ccccc1 ?
2700

Others:
Quick one: Ki of CC(C)C[C@H](NC(=O)[C@H](CCc1ccc(Cl)cc1)N[C@H](C)C(=O)O)C(=O)Nc1ccccc1 ?
2100

Quick one: Ki of CCOc1ccc(CC[C@H](N[C@H](C)C(=O)O)C(=O)N[C@@H](CCCNC(=N)N)C(=O)Nc2ccccc2)cc1 ?
2300

Quick one: Ki of Cc1cccc(CC[C@H](N[C@H](C)C(=O)O)C(=O)N[C@@H](CC(C)C)C(=O)Nc2ccccc2)c1 ?
1500

Quick one: Ki of CCCc1ccc(CC[C@H](N[C@H](C)C(=O)O)C(=O)N[C@@H](CCCN=C(N)N)C(=O)Nc2ccccc2)cc1 ?
2900

Quick one: Ki of C[C@@H](N[C@@H](CCc1ccccc1)C(=O)N[C@@H](CCCNC(=N)N)C(=O)Nc1ccccc1)C(=O)O ?
470
